Values from ChEMBL document CHEMBL5233263

# Target Under Test: D(3) dopamine receptor (Homo sapiens)
# Sequence (P35462 whole entry): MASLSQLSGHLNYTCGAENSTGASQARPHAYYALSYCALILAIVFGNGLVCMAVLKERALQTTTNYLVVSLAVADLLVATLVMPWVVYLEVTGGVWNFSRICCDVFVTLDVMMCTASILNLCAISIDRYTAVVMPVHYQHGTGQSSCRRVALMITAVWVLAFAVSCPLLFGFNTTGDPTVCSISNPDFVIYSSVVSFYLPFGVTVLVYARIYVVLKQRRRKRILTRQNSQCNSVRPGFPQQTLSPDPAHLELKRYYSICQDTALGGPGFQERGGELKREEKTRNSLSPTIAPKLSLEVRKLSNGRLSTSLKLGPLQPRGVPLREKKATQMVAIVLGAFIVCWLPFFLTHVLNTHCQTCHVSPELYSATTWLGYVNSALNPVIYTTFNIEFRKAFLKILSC
# Procedure Text: Binding affinity to D3R (unknown origin) assessed as inhibition constant
pKi: −log10 of the molar value.
Endpoint: pKi

>>> meas_value("CCOC(=O)c1sc2[nH]cn/c(=N\\[C@H]3CCN(CC)C3)c2c1C")
"< 5.00"
>>> meas_value("COc1cccc(CCC2=NCCN2CCc2ccccc2)c1")
"< 5.00"
>>> meas_value("CC(C)N1C[C@H](NC(=O)N2Cc3ccccc3[C@@H]2C)[C@@H](C)C1")
"< 5.00"
>>> meas_value("NS(=O)(=O)c1ccc(N2CCN(CCC3OCCc4ccccc43)CC2)cc1 (centres undefined)")
"< 5.56"
